Give measured pKd for each item. Keep answers brief.
target: T1, human LAP-TGFB1 Fc fusion (human); test: SPR, antigen-Fc captured, Fab analyte
T1 construct: also called human LAP-TGFβ1-Fc; human LAP-TGFβ-Fc isoform 1
T1 sequence (chain, as listed by the source limits assumed): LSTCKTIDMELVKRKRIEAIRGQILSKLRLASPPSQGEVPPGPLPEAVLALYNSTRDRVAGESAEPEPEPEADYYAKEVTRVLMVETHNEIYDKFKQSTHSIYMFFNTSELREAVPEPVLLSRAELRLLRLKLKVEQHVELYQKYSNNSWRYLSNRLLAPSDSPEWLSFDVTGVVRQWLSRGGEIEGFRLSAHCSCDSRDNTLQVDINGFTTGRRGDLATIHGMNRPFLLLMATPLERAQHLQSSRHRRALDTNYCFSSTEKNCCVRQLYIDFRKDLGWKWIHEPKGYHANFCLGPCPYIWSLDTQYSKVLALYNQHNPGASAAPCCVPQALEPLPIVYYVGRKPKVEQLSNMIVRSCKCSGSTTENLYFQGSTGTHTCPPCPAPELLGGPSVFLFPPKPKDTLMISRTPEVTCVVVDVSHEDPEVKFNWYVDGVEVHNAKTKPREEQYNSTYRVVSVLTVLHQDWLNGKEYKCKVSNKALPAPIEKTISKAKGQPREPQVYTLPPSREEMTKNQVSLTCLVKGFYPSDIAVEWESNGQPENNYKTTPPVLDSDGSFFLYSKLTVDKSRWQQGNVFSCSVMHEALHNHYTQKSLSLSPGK
# pKd: negative log10 of molar concentration; output just the value

Request: For the binder 74BJN (Fab, V domains shown, also called VH S31Y W33D M34L / VL T30Y T93D L94I (74BJN)) VH: EVQLVQSGAEVKKPGASVKVSCKASGYTFTYYDLHWVRQAPGQGLEWMGRIDPQSGGIKYAQKFQGRATLTVDTSTSTAYMELSRLRSDDTAVYYCARWDYGGYFDVWGQGTLVTVSS VL: DIQMTQSPSSLSASVGDRVTITCRASQDIYNYLNWYQQKPGKAVKLLIYYTSRLHSGVPSRFSGSGSGTDYTLTISSLQPEDFATYFCQQGDDIPWTFGQGTKLEIKR , give its measured pKd value.
Result: 9.39

Request: For the binder 73BJN (Fab, V domains shown, also called VH W33D / VL T30Y (73BJN)) VH: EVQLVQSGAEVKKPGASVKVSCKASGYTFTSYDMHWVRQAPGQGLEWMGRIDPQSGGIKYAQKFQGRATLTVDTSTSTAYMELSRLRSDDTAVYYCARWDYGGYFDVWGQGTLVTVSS VL: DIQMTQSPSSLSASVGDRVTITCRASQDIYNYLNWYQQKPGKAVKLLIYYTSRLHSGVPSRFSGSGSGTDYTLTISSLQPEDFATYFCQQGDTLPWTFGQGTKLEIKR , give its measured pKd value.
Result: 9.22
